target: Fn14-TWEAK binding (Homo sapiens, UniProt Q9NP84); construct: the human Fc fragment-tagged Fn14 extracellular domain (R&D Systems) was captured; purchased R&D Systems (Fn14-Fc); Peprotech (recombinant TWEAK); assay: Double sandwich ELISA small molecule screening of TWEAK binding to captured Fn14-Fc; details: Table 4, second screening iteration, 25 μM, replicate 1; read-out: % Reduction in TWEAK Binding, Data 1
Sequence (Q9NP84 28-80 limits assumed): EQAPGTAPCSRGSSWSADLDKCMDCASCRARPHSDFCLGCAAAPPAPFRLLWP
VALUE TYPE: inhibition at 25 µM (%)

In the examples that follow, each entry is paired with its recorded inhibition at 25 µM.
Entry under test: O=C(c1cn(-c2cccc(Cl)c2)nn1)N1CCSCC1 [Compound L524-0366] . Its inhibition at 25 µM was 18.8

Summary for this compound, C=CCSc1nnc(-c2ccccc2NC(=O)CC)c(O)n1 [Compound 6969-1085] : inhibition at 25 µM is 15.5

I. O=C(CSc1nnc(-c2ccccc2)c(-c2ccccc2)n1)Nc1ccccc1 [Compound G003-0114]
II. COc1cccc(NC(=O)CSc2nnc(-c3ccc(Cl)cc3)c(-c3ccc(Cl)cc3)n2)c1 [Compound K216-0957]
**Query** Compare I and II and name the one whose reported inhibition at 25 µM is smaller. Give the label of your selection.
**Result** I

I. Cc1cccc(-n2c(=O)c3[nH]c4ccccc4sc=3c2=O)c1 [Compound 8211-0292]
II. O=C(NCc1ccccc1Cl)C(=O)NCc1n[nH]c(=O)c2ccccc12 [Compound F044-0076]
III. O=C1CN(C(=O)CSc2ccccc2)c2ccccc2N1 [Compound D479-0271]
**Query** Which order do these items take when sorted by rising inhibition at 25 µM? List them. Put the labels in the requested order and list them out.
**Result** II, III, I
(II: -2.3%, III: 20.9%, I: 35.6%)

====

target: Fn14-TWEAK binding (Homo sapiens); construct: the human Fc fragment-tagged Fn14 extracellular domain (R&D Systems) was captured; purchased R&D Systems (Fn14-Fc); Peprotech (recombinant TWEAK); assay: Double sandwich ELISA small molecule screening of TWEAK binding to captured Fn14-Fc; conditions: Table 4, second screening iteration, 25 μM, replicate 1; read-out: % Reduction in TWEAK Binding, Data 1
VALUE TYPE: inhibition at 25 µM (%)

# count of solved cases: 6
Entry O=C(CSc1ccccc1)Nc1cccc2nsnc12 [Compound F281-0079] — recorded inhibition at 25 µM = 15.5

The reported inhibition at 25 µM of the compound CCC(=O)Nc1ccccc1-c1ccccc1NC(=O)CC [Compound 4478-7056] was 15

# compound O=C(NCc1n[nH]c(=O)c2ccccc12)C(=O)N1CCCCCC1 [Compound F044-0011] ; its inhibition at 25 µM = 20.8

Noted for CCCC(=O)Nc1ccccc1-c1nnc(SC)nc1O [Compound 7033-0155] : its inhibition at 25 µM reads 19.5

inhibition at 25 µM reading for CCCSc1nnc(-c2ccccc2NC(=O)CC)c(O)n1 [Compound 5511-0142] : 7.2

Reported inhibition at 25 µM of CCn1c(=O)c(S(=O)(=O)c2ccccc2)c(O)c2ccccc21 [Compound C200-7197] : 27.4

a. O=C(CSc1cccc2cccnc12)Nc1ccc2ccccc2c1 [Compound 4084-0026]
b. COc1ccc(-c2nnc(SCC(=O)Nc3ccccc3OC)nc2-c2ccc(OC)cc2)cc1 [Compound 3809-1067]
**Query** Larger number for inhibition at 25 µM: a , or b ? Identify your pick by its label.
**Result** b
(b: 34.5%, a: 15.3%)

====

target: Fn14-TWEAK binding (Homo sapiens); construct: the human Fc fragment-tagged Fn14 extracellular domain (R&D Systems) was captured; purchased R&D Systems (Fn14-Fc); Peprotech (recombinant TWEAK); assay: Double sandwich ELISA small molecule screening of TWEAK binding to captured Fn14-Fc; settings: Table 5, 25 μM, average of duplicate; read-out: % Reduction in TWEAK Binding, Average
VALUE TYPE: inhibition at 25 µM (%)

Tested on Fn14-TWEAK binding (Homo sapiens): CCC(=O)Nc1ccccc1-c1nnc(SCC(=O)Nc2ccc(OC)cc2)[nH]c1=O . Observed inhibition at 25 µM: 10.3

Summary line: CCS(=O)(=O)c1ccc(OCc2cc(=O)n3oc(C)cc3n2)c(NC(=O)COc2ccccc2C)c1 , Fn14-TWEAK binding (Homo sapiens), reported inhibition at 25 µM = 19.6

a. COc1ccc(-c2nnc(SCC(=O)Nc3cccc4ccccc34)nc2-c2ccccc2)cc1
b. COc1ccccc1NC(=O)Cc1csc(NC(=O)Nc2ccccc2)n1
**Query** Please tell me which of the two, a or b , has the higher reported inhibition at 25 µM value. Reply briefly: the label of your chosen item.
**Result** a

====

target: Fn14-TWEAK binding (Homo sapiens, UniProt Q9NP84); construct: the human Fc fragment-tagged Fn14 extracellular domain (R&D Systems) was captured; purchased R&D Systems (Fn14-Fc); Peprotech (recombinant TWEAK); assay: Double sandwich ELISA small molecule screening of TWEAK binding to captured Fn14-Fc; settings: Table 5, 25 μM, average of duplicate; read-out: % Reduction in TWEAK Binding, Average
VALUE TYPE: inhibition at 25 µM (%)

Lab note: measured inhibition at 25 µM of O=C(c1cn(-c2cccc(Cl)c2)nn1)N1CCCC1 [Compound L524-0322] was 11.6

Lab note: measured inhibition at 25 µM of COc1cccc(NC(=O)CSc2nnc(-c3ccc(F)cc3)c(-c3ccc(F)cc3)n2)c1 [Compound K216-0906] was 16.6

What the record says about Cc1cc(NC(=O)CSc2ccccc2)ccc1Cl [Compound 1068-0114] : inhibition at 25 µM is 13.4

====

biological target: Fn14-TWEAK binding (Homo sapiens, UniProt Q9NP84); construct: the human Fc fragment-tagged Fn14 extracellular domain (R&D Systems) was captured; purchased R&D Systems (Fn14-Fc); Peprotech (recombinant TWEAK); assay: Double sandwich ELISA small molecule screening of TWEAK binding to captured Fn14-Fc; details: Table 3, first round of screening, 25 μM, replicate 1; read-out: % Reduction in TWEAK Binding, Data 1
VALUE TYPE: inhibition at 25 µM (%)

Recorded inhibition at 25 µM, per entry:
Entry under test: CCOCCCNC(=O)C(=O)NCc1n[nH]c(=O)c2ccccc12 . Its inhibition at 25 µM was 9.99

Please fill in: inhibition at 25 µM reported for COc1ccccc1NC(=O)Cc1csc(NC(=O)Nc2ccccc2)n1 = 13

inhibition at 25 µM for O=C(Cc1c[nH]c2ccccc12)Nc1ccc2oc(=O)ccc2c1 is 9.04

P. CCC(=O)Nc1ccccc1-c1nnc(SC(CC)C(=O)Nc2cc(OC)cc(OC)c2)[nH]c1=O (stereo not drawn)
Q. O=C(NCc1cccnc1)C(=O)NCc1n[nH]c(=O)c2ccccc12
**Query** Which has the higher inhibition at 25 µM, P or Q ? Response format: the label of the selected entry.
**Result** P

====

target: Fn14-TWEAK binding (Homo sapiens); construct: the human Fc fragment-tagged Fn14 extracellular domain (R&D Systems) was captured; purchased R&D Systems (Fn14-Fc); Peprotech (recombinant TWEAK); assay: Double sandwich ELISA small molecule screening of TWEAK binding to captured Fn14-Fc; settings: Table 5, 25 μM, replicate 2; read-out: % Reduction in TWEAK Binding, Data 2
VALUE TYPE: inhibition at 25 µM (%)

Noted for COc1ccccc1NC(=O)Cc1csc(NC(=O)Nc2ccccc2)n1 : its inhibition at 25 µM reads 7.81

Given item CCn1c(=O)c(S(=O)(=O)c2ccccc2)c(O)c2ccccc21 , the value recorded as its inhibition at 25 µM is 25.1

Consider O=C(Cc1c[nH]c2ccccc12)Nc1ccc2oc(=O)ccc2c1 . Its measured inhibition at 25 µM is 11.5

inhibition at 25 µM reported for this molecule O=C(NC1CC1)c1cn(-c2cccc(Cl)c2)nn1 : 16.7

inhibition at 25 µM reported for this molecule O=C(O)C[C@@H]1NC(=O)c2ccccc2NC1=O : 14.7

I. Cc1cccc(-n2c(=O)c3[nH]c4ccccc4sc=3c2=O)c1
II. O=C(CSc1nc2c(cnn2-c2ccccc2)c(=O)[nH]1)NCc1ccc2c(c1)OCO2
III. Cc1cc(C2CCCN2C(=O)c2cc(-c3ccc4c(c3)OCO4)on2)on1 (stereo not drawn)
**Query** rank_up(items): orders items by reported inhibition at 25 µM in ascending numerical order. A ranking is expressed here by listing the labels in the requested order.
**Result** III, II, I

====

target: Fn14-TWEAK binding (Homo sapiens); construct: the human Fc fragment-tagged Fn14 extracellular domain (R&D Systems) was captured; purchased R&D Systems (Fn14-Fc); Peprotech (recombinant TWEAK); test: Double sandwich ELISA small molecule screening of TWEAK binding to captured Fn14-Fc; conditions: Table 3, first round of screening, 25 μM, replicate 2; read-out: % Reduction in TWEAK Binding, Data 2
VALUE TYPE: inhibition at 25 µM (%)

Item: O=C(NCc1ccccc1)C(=O)NCc1n[nH]c(=O)c2ccccc12 [Compound F044-0075] | System: Fn14-TWEAK binding (Homo sapiens) | inhibition at 25 µM: 12.8

1. CCC(=O)Nc1ccccc1-c1nnc(SCC(=O)Nc2ccc(OC)cc2)[nH]c1=O [Compound F151-0485]
2. Cc1cc(C)n(CC(=O)NCCc2c[nH]c3ccccc23)n1 [Compound D715-0890]
**Query** Return label of the item with the larger inhibition at 25 µM. Candidates: 1 , 2 . Identify your pick by its label.
**Result** 2
